tested-on: T1, mouse DLL4 overexpressed on cells (mouse, UniProt Q9JI71 27-686)
T1 construct: whole, on cells; also called CHO-mDLL4; CHO-mDII4
assay-remarks: FMAT, labelled hNotch1-Fc on CHO-mDLL4, periplasmic extract
Source text: All calculations are based on the FL1_total signal which comprises the average of the fluorescence per well times the number of counts per well.
For each of the binders below, state its % inh.
Quick reminder: number only, in %, skip the unit.

Provide % inh value for the following binder: DLLBII102F08 (VHH) VHH: EVQLVESGGGLVQTGDSLRLSCAASGSTFSNYRMGWFRQGPGKEREFVAAIGRNGQNTYYTDSVKGRFTVTRDNAKNMVYLQMNSLKPEDSAVYTCAASLRGWDTTRIDYEYWGQGTQVTVSS 75

Provide % inh value for the following binder: DLLBII112A04 (VHH) VHH: EVQLVESGGGLVQAGGSLRLSCAAFGRTPYGMGWFRQAPGKEREFVAAITSDGSTNYADSVKGRFTISRDNAKNAVSLQMNSLKPEDTAVYYCTAPYYSDFEGTTTEYDYWGQGTQVTVSS 90
